- System: MDA-MB-231 breast
- test_name: NCI-60 one-dose screen, 48 h
- condition_info: 10 µM unless noted
Compounds without any hit were thinned out: in the full panel of roughly 83,000, 20% have a hit. Activity calls are given as the source filed them. The calls were made as follows: active = growth percent below 10; inactive = the rest.
Classes used: active, inactive

1. O=S(=O)(NCCCNc1nccc(-n2cnc3ccccc32)n1)c1ccc(C(F)(F)F)cc1 :: inactive
2. Cc1ccc(CSc2nc(-c3ccc(Cl)cc3)c(C#N)c(N3CCNCC3)n2)cc1 :: inactive
3. COc1c(N2CC3CCCNC3C2)c(F)cc2c(=O)c(C(=O)N/N=C/c3ccc(Br)cc3)cn(C3CC3)c12 (stereo not drawn) :: inactive
4. COc1cccc(N2CCN(c3ncnc4c3[nH]c3ccc(F)cc34)C[C@H]2C)c1 :: inactive
5. CC[C@H](CO)Nc1ccc2ncc(C#Cc3cncc(C(=O)Nc4ccc(CN5CCN(C)CC5)c(C(F)(F)F)c4)c3)n2n1 :: active
6. C=C1CC[C@@H]2[C@]3(C)COC(c4ccccc4)O[C@@H]3CC[C@@]2(C)[C@@H]1C/C=C1/C(=O)OC[C@H]1O (stereo partly drawn) :: inactive
7. CN(C)CCCOc1ccc2c(c1)CN(C(=O)c1cc(C(=O)N3Cc4cccc(F)c4C3)ccc1O)C2 :: inactive
8. COc1ccc([C@H]2[C@H](O)C(=O)N2c2cc(OC)c(OC)c(OC)c2)cc1F :: inactive
9. Cc1ccc2sc3c(c2c1)OC(N)=C(C#N)C3c1cccc(F)c1 (stereo not drawn) :: inactive
10. CNC(=O)c1cc(N2CCc3cc(NC(=O)Nc4ccc(Cl)c(C(F)(F)F)c4)ccc32)ccn1 :: inactive
11. COc1ccc(C(=O)c2c(N)c(C#N)cn2-c2ccccc2OC)cc1 :: inactive
12. CN1CCN(Cc2ccc(NC(=O)c3cncc(C#Cc4cnn5cccnc45)c3)cc2C(F)(F)F)CC1 :: active
13. O=S(=O)(Oc1ccc(-c2nnc(Nc3ccccc3)s2)cc1)C(F)(F)C(F)(F)C(F)(F)C(F)(F)C(F)(F)C(F)(F)F :: inactive
14. COc1ccc2[nH]cc(-c3csc4nc(-c5ccccc5)cn34)c2c1 :: inactive
15. O=C(NCc1ncc[nH]1)c1ccc(-c2nc3ccc4[nH]ncc4c3c3c2CCCC3)cc1 :: active
16. CCC(NC(c1cc2cccc3ccc4cccc1c4c32)c1nnnn1C(C)(C)C)C1CCCCC1 (stereo not drawn) :: inactive
17. COc1cc(-c2nn(C(C)(C)C)cc2-c2ccnc(NCCCNS(=O)(=O)c3ccc(C)cc3)n2)ccc1Cl :: inactive
18. CS(=O)(=O)Nc1cc(-c2ccc3ncc(C#N)c(Nc4cccc(Cl)c4F)c3c2)cnc1Cl :: active
19. C=CCn1c(SCC(=O)Nc2ccc(C(=O)/C=C/c3ccc(Br)cc3)cc2)nnc1-c1c[nH]c2ccccc12 :: inactive
20. COc1cc(OC)cc(C(=O)Nc2sc3c(c2C(N)=O)CCC(=O)C3)c1 :: inactive
21. Nc1nc(Nc2ccccc2SSc2ccccc2Nc2nc(N)nc(-c3cccc(Br)c3)n2)nc(-c2cccc(Br)c2)n1 :: inactive
22. COC(=O)c1[nH]nc2c1C1(C(=O)c3cccc4cccc1c34)C(C#N)=C(N)O2 (stereo not drawn) :: inactive
23. NS(=O)(=O)c1ccc(Nc2nc(Nc3ccccc3)nc3nnc(SCC(=O)NC4CCCCC4)n23)cc1 :: inactive
24. C#Cc1nc(/C=C/C(=O)c2nccn2C)cs1 :: active
25. C=C(C=O)[C@@H]1CC[C@]2(C)[C@H](C(=O)C=C3[C@H]4C[C@](C)(C(=O)OC)CC[C@]4(C)CC[C@]32C)[C@@]1(C)CCC#N :: active
26. Cc1nc(-c2ccccc2O)ccc1C(=O)N=Nc1c(O)[nH]c2ccc(Br)cc12 :: inactive
27. C#Cc1nc(C(C)=O)cs1 :: inactive
28. Clc1cccc(/C=N/Nc2nc(N/N=C/c3cccc(Cl)c3Cl)nc(N3CCCCC3)n2)c1Cl :: inactive
29. CC(c1ccccc1)N1CSc2nc3ncncc3n2C1 (stereo not drawn) :: inactive
30. CC(=O)Nc1cccc(Nc2nc(N[C@@H](C)c3ccccc3)c3ccccc3n2)c1 :: active
31. COc1ccc(NC(=O)CSc2nnc(-c3ccc4nc(-c5ccc(OC)c(OC)c5)[nH]c4c3)o2)cc1OC :: inactive
32. Nc1nc(-c2cccc([N+](=O)[O-])c2)c(N=Nc2ccccc2)s1 :: inactive
33. N/C(=N\C(N)=N\c1nc2ccccc2s1)c1ccc2ccccc2c1 :: inactive
34. CN1CCN(c2ccc(/C=N/Nc3nc4ccccc4c(=O)n3-c3ccccc3)cc2)CC1 :: inactive
35. C#CCOc1ccc(/C=N\Nc2nc(-c3ccc(C)cc3)cs2)cc1OC :: inactive
36. Nc1ncc(-c2ccc3ncnc(Nc4cccc(Cl)c4F)c3c2)cn1 :: inactive
37. Cc1cc2ncc(-c3cc4ccccc4c(N4CCN(C)CC4)n3)nc2cc1C :: inactive
38. NC/C(=C/F)COc1ccc2nc(NCc3cccnc3)oc2c1 :: inactive
